assay-system: Recombinant KLK2 (Homo sapiens)
Construct: made in house; host or cells: baculovirus-insect cell line system
Sequence (P20151 25-261): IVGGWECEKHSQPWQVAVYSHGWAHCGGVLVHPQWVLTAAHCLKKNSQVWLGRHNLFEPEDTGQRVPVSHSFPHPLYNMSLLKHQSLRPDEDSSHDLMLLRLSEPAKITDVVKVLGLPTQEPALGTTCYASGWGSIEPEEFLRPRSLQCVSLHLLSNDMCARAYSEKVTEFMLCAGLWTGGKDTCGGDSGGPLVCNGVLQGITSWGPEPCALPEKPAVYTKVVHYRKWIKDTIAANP
method-summary: Hydrolysis of FRET peptides by recombinant KLK2 (kinetic parameters)
Type: biochemical
cond: pH 8.0, 20 mM Tris–HCl, 1 M sodium citrate, 37 °C, KLK2 1.6 nM; three enzymatic reactions, standard errors 5% or less
Non-standard residues stand in square brackets, D forms with d. No end group written: not given here. *: point of attachment. EDDnp = O=[N+]([O-])c1ccc(NCCN*)c([N+](=O)[O-])c1; 2Abz = Nc1ccccc1C(=O)O
Below, each entry is listed alongside its reported kcat.
Could you give me the number in s^–1? Just the number is fine.

# example entries with known answers
substance	assay-readout	reported
Abz-XLRSSKQ-EDDnp, X = S: FRET peptide, S3 series, X = S (Abz-SLRSSKQ-EDDnp)	kcat	29.8
Abz-KXRSSKQ-EDDnp, X = E: FRET peptide, S2 series, X = E [Abz-KXRSSKQ-EDDnp, X = E] ([2Abz]KERSSKQ-EDDnp)	kcat	1.0
Abz-KLRSXKQ-EDDnp, X = I: FRET peptide, S2’ series, X = I ([2Abz]KLRSIKQ-EDDnp)	kcat	4.4

(Q) Consider the substance Abz-KXRSSKQ-EDDnp, X = N: FRET peptide, S2 series, X = N (Abz-KNRSSKQ-EDDnp) and give its measured kcat.
(A) 3.3

(Q) Sample Abz-XLRSSKQ-EDDnp, X = R: FRET peptide, S3 series, X = R (Abz-RLRSSKQ-EDDnp) — what was its kcat?
(A) 22.3

(Q) May I ask what kcat has been recorded for Abz-XLRSSKQ-EDDnp, X = H: FRET peptide, S3 series, X = H (N-terminal Abz, C-terminal EDDnp; X = H) ?
(A) 17.2

(Q) Using the record for Abz-KLRSXKQ-EDDnp, X = A: FRET peptide, S2’ series, X = A ([2Abz]KLRSAKQ-EDDnp) , report its kcat.
(A) 12.2

(Q) What value of kcat has been recorded for this entry: Abz-KXRSSKQ-EDDnp, X = G: FRET peptide, S2 series, X = G ([2Abz]KGRSSKQ-EDDnp)
(A) 1.0

(Q) # lookup: kcat of Abz-XLRSSKQ-EDDnp, X = N: FRET peptide, S3 series, X = N (Abz-NLRSSKQ-EDDnp)
(A) 26.7

(Q) # kcat lookup, item Abz-KLRSXKQ-EDDnp, X = L: FRET peptide, S2’ series, X = L ([2Abz]KLRSLKQ-EDDnp)
(A) 8.5

(Q) Please report the recorded kcat for Abz-KXRSSKQ-EDDnp, X = A: FRET peptide, S2 series, X = A [Abz-KXRSSKQ-EDDnp, X = A] ([2Abz]KARSSKQ-EDDnp) .
(A) 2.2

(Q) Given Abz-KXRSSKQ-EDDnp, X = R: FRET peptide, S2 series, X = R (Abz-KRRSSKQ-EDDnp) , state its recorded kcat.
(A) 8.7

(Q) Can you look up the measured kcat of Abz-KLRXSKQ-EDDnp, X = G: FRET peptide, S1’ series, X = G ([2Abz]KLRGSKQ-EDDnp) for me?
(A) 19.9

(Q) Which value of kcat has been reported for Abz-KLRSXKQ-EDDnp, X = V: FRET peptide, S2’ series, X = V ([2Abz]KLRSVKQ-EDDnp) in the records?
(A) 15.3

(Q) Query: kcat; subject: Abz-KXRSSKQ-EDDnp, X = T: FRET peptide, S2 series, X = T (Abz-KTRSSKQ-EDDnp)
(A) 3.6

(Q) kcat for Abz-XLRSSKQ-EDDnp, X = Q: FRET peptide, S3 series, X = Q (Abz-QLRSSKQ-EDDnp) ?
(A) 25.7
